Target: T1, Recombinant human TSLP-his (human, UniProt Q969D9 29-159)
T1 construct: Prepared in-house; Amine-coupled to CM5 chip in SPR, loaded on APS sensors in Octet, biotin-labeled in the capture ELISA, unlabeled in the cell functional assays; also called human TSLP-his protein
Assay: SPR, Biacore T200; protocol of Example 2
READOUT NAME: kon

• hu1C5F12E9-V1 (antibody, human IgG4 S228P, kappa, V domains shown) VH: QVQLVQSGAEVKKPGASVKVSCKASGYTFTTYWMHWVRQAPGQGLEWIGVIDPSDSDTTYNQKFKGRATLTVDTSSSTAYMELSSLRSEDTAVYYCTRSLDGYYDYWGQGTLVTVSS VL: DIQMTQSPSSLSASVGDRVTITCRPTENIYSYLAWYQQKPGKSPKLLVYFARTLAEGVPSRFSGSGSGTDFTLTISSLQPEDFATYYCQHHYGTPWTFGGGTKVEIKR = 99300 M⁻¹ s⁻¹
• hu1C5F12E9-V3 (antibody, human IgG4 S228P, kappa, V domains shown) VH: QVQLVQSGAEVKKPGASVKVSCKASGYTFTTYWMHWVRQAPGQGLEWMGVIDPSDSDTTYNQKFKGRVTMTVDTSTSTVYMELSSLRSEDTAVYYCTRSLDGYYDYWGQGTLVTVSS VL: DIQMTQSPSSLSASVGDRVTITCRPTENIYSYLAWYQQKPGKSPKLLVYFARTLAEGVPSRFSGSGSGTDFTLTISSLQPEDFATYYCQHHYGTPWTFGGGTKVEIKR = 103000 M⁻¹ s⁻¹

As a next step, examine the binder that follows.
The binder listed as hu1C5F12E9-V5 (antibody, human IgG4 S228P, kappa, V domains shown) VH: QVQLVQSGAEVKKPGASVKVSCKASGYTFTTYWMHWVRQAPGQGLEWMGVIDPSDSDTTYNQKFKGKATMTRDTSTSTVYMELSSLRSEDTAVYYCTRSLDGYYDYWGQGTLVTVSS VL: DIQMTQSPSSLSASVGDRVTITCRPTENIYSYLAWYQQKPGKSPKLLVYFARTLAEGVPSRFSGSGSGTDFTLTISSLQPEDFATYYCQHHYGTPWTFGGGTKVEIKR shows kon equal to 103000 M⁻¹ s⁻¹

Source listed as patent US20220289833A1.
